Biological target: haematopoietic prostaglandin D synthase (H-PGDS) (Homo sapiens, UniProt O60760)
Construct: Full length human H-PGDS cDNA (Invitrogen Ultimate ORF 10H13026) was amplified by PCR; 6-His (N); TEV protease cleavage site (N); made in house; host or cells: E. coli BL21 (DE3*), vector pET22b+
Sequence (O60760 whole entry): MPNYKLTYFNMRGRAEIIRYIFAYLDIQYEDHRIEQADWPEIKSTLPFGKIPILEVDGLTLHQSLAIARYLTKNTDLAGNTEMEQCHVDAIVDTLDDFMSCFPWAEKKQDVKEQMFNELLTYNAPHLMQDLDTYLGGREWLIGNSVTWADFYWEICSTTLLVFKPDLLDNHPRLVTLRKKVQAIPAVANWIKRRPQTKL
Test: H-PGDS RapidFire high throughput mass spectrometry assay (conversion of PGH2 to PGD2)
Type: biochemical
Details: 10 nM H-PGDS, PGH2 formed in situ by COX-2 from arachidonic acid; read-out: Potency Range (mean pIC50) (converted)
Give IC50 for every item shown.

-- ask Find the recorded IC50 belonging to O=C(NC1CN(c2ncc(F)cn2)C1)[C@H]1C[C@H](Oc2cc(F)cc3scnc23)C1 [Example 136] and report it.
-- reply 0.01 to 0.0794 µM

-- ask Same thing, different molecule: CC(=O)c1cnc(NC(=O)[C@H]2C[C@H](Oc3cccc4ccoc34)C2)s1 [Example 264]
-- reply 0.01 to 0.0794 µM

-- ask Param item: CC(C)(O)CO[C@H]1CC[C@H](NC(=O)N2CC(Oc3cccc4scnc34)C2)CC1 [Example 106]
-- reply 0.01 to 0.0794 µM

-- ask Again, but for O=C(NCc1cccs1)[C@H]1C[C@H](Oc2cccc3scnc23)C1 [Example 250]
-- reply 0.1 to 1 µM

-- ask And COC(=O)C12CCC(NC(=O)N3CC(Oc4cccc5scnc45)C3)(CC1)CC2 [Example 327] ?
-- reply 0.01 to 0.0794 µM

-- ask Note, next up: COc1ccc(F)cc1O[C@H]1C[C@H](C(=O)N[C@H]2CC[C@H](N3CCOCC3=O)CC2)C1 [Example 151]
-- reply 0.1 to 1 µM

-- ask Try this molecule next: O=C(NC1CCN(c2ccccn2)C1)[C@H]1C[C@H](Oc2cccc3scnc23)C1 (mixture of isomers) [Example 82]
-- reply 0.01 to 0.0794 µM

-- ask Please do the same for CC(C)(O)C12CC(NC(=O)N3CC(Oc4cccc5scnc45)C3)(C1)C2 [Example 316] as well.
-- reply 0.1 to 1 µM
